tested on: H460; assay: Cytotoxicity under normoxia and hypoxia (anaerobic chamber, sulphorhodamine B), H460; assay type: cell-based, human; settings: Homo sapiens, NCI-H460; H460, hypoxia, 4 h exposure, 5 days growth; read-out: IC50 (Hypoxia)
quantity name: IC50 (nM)
One number for each entry, in nM.

Hey, quick one: what's IC50 for each of these?
1. COc1ccc2c3c(c4cc(OC)c(OC)cc4c2c1)C[C@H]1CCCN1C3 [(R)-Antofine, (R)-antofine]
2. Cn1c(COP(=O)(NCCBr)NCCBr)cnc1[N+](=O)[O-] [Evofosfamide]
3. COc1ccc2c3c(c4cc(OC)c(OC)cc4c2c1)C[C@H]1CCC[N+]1(Cc1c([N+](=O)[O-])ncn1C)C3.[Br-] (stereo partly shown)
4. COc1cc2c3c(c4cc(OC)c(OC)cc4c2cc1OC)CN1CCC[C@@H]1C3 [(R)-Tylophorine]
5. COc1cc2c3c(c4cc(OC)c(OC)cc4c2cc1OC)C[N+]1(Cc2c([N+](=O)[O-])ncn2C)CCC[C@H]1C3.[Br-] (stereo partly shown)
6. COc1cc2c3c(c4cc(OC)c(OC)cc4c2cc1OC)C[N+]1(Cc2c([N+](=O)[O-])ncn2C)CCC[C@@H]1C3.[Br-] (stereo partly shown)
7. COc1cc2c3c(c4cc(OC)c(OC)cc4c2cc1OC)CN1CCC[C@H]1C3 [(S)-Tylophorine]

25.4
17.2
618
161
3220
6500
102
